Target: beta-catenin/TCF4 engagement (Homo sapiens)
Construct: expressed in transfected cells; host or cells: HEK293
Sequence (P35222 whole entry): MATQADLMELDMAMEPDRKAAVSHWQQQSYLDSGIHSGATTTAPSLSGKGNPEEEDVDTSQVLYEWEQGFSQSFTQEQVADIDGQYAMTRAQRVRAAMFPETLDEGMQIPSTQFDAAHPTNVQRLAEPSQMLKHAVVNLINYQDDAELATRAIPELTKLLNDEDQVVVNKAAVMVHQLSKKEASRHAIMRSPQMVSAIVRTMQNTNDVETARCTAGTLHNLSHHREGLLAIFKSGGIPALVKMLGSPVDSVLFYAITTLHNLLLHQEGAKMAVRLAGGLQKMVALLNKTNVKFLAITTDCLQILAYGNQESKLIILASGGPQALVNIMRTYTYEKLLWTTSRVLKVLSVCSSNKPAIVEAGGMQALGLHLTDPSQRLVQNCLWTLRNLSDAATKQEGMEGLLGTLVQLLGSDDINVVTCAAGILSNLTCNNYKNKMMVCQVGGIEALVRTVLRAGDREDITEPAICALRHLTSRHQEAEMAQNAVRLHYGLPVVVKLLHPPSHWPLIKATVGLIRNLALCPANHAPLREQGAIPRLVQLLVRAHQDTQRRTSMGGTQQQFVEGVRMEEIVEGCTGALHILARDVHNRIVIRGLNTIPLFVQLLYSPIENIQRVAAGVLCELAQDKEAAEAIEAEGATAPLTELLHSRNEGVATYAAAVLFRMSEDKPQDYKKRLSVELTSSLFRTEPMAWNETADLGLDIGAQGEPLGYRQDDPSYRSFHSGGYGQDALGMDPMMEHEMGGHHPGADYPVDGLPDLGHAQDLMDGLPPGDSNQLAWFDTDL
Assay: Nano-BRET target engagement assay (B-cat-Halo & TCF4-Luc in HEK293 cells)
Assay type: cell-based
Details: absolute IC50; read-out: NanoBRET Abs IC50
MEASURED PARAMETER: pIC50
pIC50 (log units): -log10 of the concentration in mol/L.

Guide cases for pIC50, answers given:
- CC(=O)N1CCC[C@]12CC=CCCCC1(CCCC=CCCCOC(=O)N3CC[C@@](C(=O)N[C@@H](Cc4ccsc4)C(=O)N[C@@H](Cc4csc5ccccc45)C(=O)N[C@@H](CCC(N)=O)C(=O)N4CCC[C@H]4CO)(C3)NC(=O)[C@H](CC(C)C)NC(=O)[C@H](Cc3ccccc3)NC(=O)[C@H](C)NC(=O)[C@H](C)NC(=O)[C@H](CN(CC(=O)O)CC(F)(F)F)NC(=O)[C@H](CC(=O)O)NC1=O)NC(=O)[C@H](CC(C)(C)C)NC(=O)[C@H](CC(=O)O)NC2=O (stereo partly drawn) [I-1681]: 5.27
- CCCC[C@@H]1NC(=O)[C@H](Cc2ccccc2)NC(=O)[C@H](C)NC(=O)[C@H](C)NC(=O)[C@H](CN(CC(=O)O)CC(F)(F)F)NC(=O)[C@H](CC(=O)O)NC(=O)C2(CCCC=CCCCOC(=O)N3CC[C@@](C(=O)N[C@@H](Cc4ccsc4)C(=O)N[C@@H](Cc4csc5ccccc45)C(=O)N[C@@H](CCC(N)=O)C(N)=O)(C3)NC1=O)CCCC=CC[C@]1(CCCN1C(C)=O)C(=O)N[C@@H](CC(=O)O)C(=O)N[C@@H](CC(C)(C)C)C(=O)N2 (stereo partly drawn) [I-1776]: 4.98
- CC(=O)N1CCC[C@]12CC=CCCCC1(CCCC=CCCCOC(=O)N3CC[C@@](C(=O)N[C@@H](Cc4ccccc4C(F)(F)F)C(=O)N[C@@H](Cc4csc5ccccc45)C(=O)N[C@@H](CO)C(N)=O)(C3)NC(=O)[C@H](CC(C)C)NC(=O)[C@H](Cc3ccccc3)NC(=O)[C@H](C)NC(=O)[C@H](C)NC(=O)[C@H](Cn3cc(C(C)(C)C(=O)O)nn3)NC(=O)[C@H](CC(=O)O)NC1=O)NC(=O)[C@H](CC(C)(C)C)NC(=O)[C@H](CC(=O)O)NC2=O (stereo partly drawn) [I-2374]: 5.47

Req: Please give the measured pIC50 for this compound: CC(=O)N1CCC[C@]12CC=CCCCC1(CCCC=CCCCOC(=O)N3CC[C@@](C(=O)N[C@@H](Cc4ccsc4)C(=O)N[C@@H](Cc4csc5ccccc45)C(=O)N[C@@H](CC(N)=O)C(N)=O)(C3)NC(=O)[C@H](CC(C)C)NC(=O)[C@H](Cc3ccccc3)NC(=O)[C@H](C)NC(=O)[C@H](C)NC(=O)[C@H](CC(=O)O)NC(=O)[C@H](CC(=O)O)NC1=O)NC(=O)[C@H](CC(C)(C)C)NC(=O)[C@H](CC(=O)O)NC2=O (stereo partly drawn) [I-1492]
Resp: 5.14

Req: Please give the measured pIC50 for this compound: CC(=O)N1CCC[C@]12CC=CCCCC1(CCCC=CCCCOC(=O)N3CC[C@@](C(=O)N[C@@H](Cc4c(F)c(F)c(F)c(F)c4F)C(=O)N[C@@H](Cc4csc5ccccc45)C(=O)N[C@@H](CO)C(N)=O)(C3)NC(=O)[C@H]([C@@H](C)O)NC(=O)[C@H](Cc3ccccc3)NC(=O)[C@H](C)NC(=O)[C@H](C)NC(=O)[C@H](CC(=O)O)NC(=O)[C@H](CC(=O)O)NC1=O)NC(=O)[C@H](CC1CCCCC1)NC(=O)[C@H](CC(=O)O)NC2=O (stereo partly drawn) [I-1187]
Resp: 4.54

Req: Please give the measured pIC50 for this compound: CC(=O)N1CCC[C@]12CC=CCCCC1(CCCC=CCCCOC(=O)N3CC[C@@](C(=O)N[C@@H](Cc4ccsc4)C(=O)N[C@@H](Cc4csc5ccccc45)C(=O)N[C@@H](Cc4c[nH]c5ccccc45)C(N)=O)(C3)NC(=O)[C@H](CC(C)C)NC(=O)[C@H](Cc3ccccc3)NC(=O)[C@H](C)NC(=O)[C@H](C)NC(=O)[C@H](CC(=O)O)NC(=O)[C@H](CC(=O)O)NC1=O)NC(=O)[C@H](CC(C)(C)C)NC(=O)[C@H](CC(=O)O)NC2=O (stereo partly drawn) [I-1497]
Resp: 4.94

Req: Please give the measured pIC50 for this compound: CC(=O)N1CCC[C@]12CC=CCCCC1(CCCC=CCCCOC(=O)N3CC[C@@](C(=O)N[C@@H](Cc4ccccc4)C(=O)N[C@@H](Cc4csc5ccccc45)C(=O)N[C@@H](CO)C(N)=O)(C3)NC(=O)[C@H]([C@@H](C)O)NC(=O)[C@H](Cc3ccc4ccccc4c3)NC(=O)[C@H](C)NC(=O)[C@H](C)NC(=O)[C@H]([C@@H](C)O)NC(=O)[C@H](CC(=O)O)NC1=O)NC(=O)[C@H](CC(C)(C)C)NC(=O)[C@H](CC(=O)O)NC2=O (stereo partly drawn) [I-1267]
Resp: 4.43

====

Target: full-length beta-Catenin (Uniprot ID P35222) (Homo sapiens, UniProt P35222)
Construct: 10 nM full-length beta-Catenin (Uniprot ID P35222)
Sequence (P35222 whole entry): as above
Assay: Fluorescence polarization IC50 (beta-catenin / 5FAM-TCF4 10-53 competition)
Assay type: binding
Settings: fluorescence polarization; read-out: beta-Catenin FP IC50
MEASURED PARAMETER: IC50 (nM)
Kindly answer with a numeric value in nM, unit omitted.

Guide cases for IC50, answers given:
* CCCC[C@@H]1NC(=O)[C@H](CC(=O)O)NC(=O)[C@]2(CC=CCCCC3(CCCC=CCCCCCC[C@@](C)(C(=O)N[C@@H](Cc4ccccc4)C(=O)N[C@@H](Cc4csc5ccccc45)C(=O)N[C@@H](CCC(N)=O)C(N)=O)NC(=O)[C@H](CCO)NC(=O)[C@H](Cc4ccccc4)NC(=O)[C@H](C)NC(=O)[C@H](C)NC(=O)[C@H](CCC(=O)O)NC(=O)[C@H](CC(=O)O)NC3=O)NC1=O)CCCN2C(C)=O (stereo partly drawn) [I-1524] | 17
* CC(=O)N1CCC[C@]12CC=CCCCC1(CCCC=CCCCOC(=O)N3CC[C@@](C(=O)N[C@@H](Cc4ccsc4)C(=O)N[C@@H](Cc4csc5ccccc45)C(=O)N[C@@H](CCC(N)=O)C(N)=O)(C3)NC(=O)[C@H](CC(N)=O)NC(=O)[C@H](Cc3ccccc3)NC(=O)[C@H](C)NC(=O)[C@H](C)NC(=O)[C@H](CCc3ccc(O)cc3)NC(=O)[C@H](CC(=O)O)NC1=O)NC(=O)[C@H](CC(C)(C)C)NC(=O)[C@H](CC(=O)O)NC2=O (stereo partly drawn) | 31

Now let's try a different one.
Req: Please give the measured IC50 for this compound: CC[C@@H]1NC(=O)[C@H](CC(=O)O)NC(=O)[C@]2(CC=CCCCC3(CCCC=CCCCCCC[C@@](C)(C(=O)N[C@@H](Cc4ccccc4)C(=O)N[C@@H](Cc4csc5ccccc45)C(=O)N[C@@H](CCC(N)=O)C(N)=O)NC(=O)[C@H](CC(N)=O)NC(=O)[C@H](Cc4ccccc4)NC(=O)[C@H](C)NC(=O)[C@H](C)NC(=O)[C@H](CCC(=O)O)NC(=O)[C@H](CC(=O)O)NC3=O)NC1=O)CCCN2C(C)=O (stereo partly drawn) [I-473]
Resp: 121

====

Molecular target: full-length beta-Catenin (Uniprot ID P35222) (Homo sapiens, UniProt P35222)
Construct: 10 nM full-length beta-Catenin (Uniprot ID P35222)
Assay: Fluorescence polarization IC50 (beta-catenin / 5FAM-TCF4 10-53 competition)
Assay type: binding
Details: fluorescence polarization; read-out: beta-Catenin FP IC50
Listed next: entries and their corresponding pIC50.
pIC50 (log units): -log10 of the concentration in mol/L.

Guide cases for pIC50, answers given:
- CC(=O)N1CCC[C@]12CC=CCCCC1(CCCC=CCCCOC(=O)N3CC[C@@](C(=O)N[C@@H](Cc4ccsc4)C(=O)N[C@@H](Cc4csc5ccccc45)C(=O)N[C@@H](CCC(N)=O)C(N)=O)(C3)NC(=O)[C@H](CC(C)C)NC(=O)[C@H](Cc3cccc(C#N)c3)NC(=O)[C@H](C)NC(=O)[C@H](C)NC(=O)[C@H](CC(=O)O)NC(=O)[C@H](CC(=O)O)NC1=O)NC(=O)[C@H](CC(C)(C)C)NC(=O)[C@H](CC(=O)O)NC2=O (stereo partly drawn): 7.89
- CC(=O)N1CCC[C@]12CC=CCCCC1(CCCC=CCCCOC(=O)N3CC[C@@](C(=O)N[C@@H](Cc4ccsc4)C(=O)N[C@@H](Cc4csc5ccccc45)C(=O)N[C@@H](CCC(N)=O)C(N)=O)(C3)NC(=O)[C@H](Cn3cc(CN(C)C)nn3)NC(=O)[C@H](Cc3ccccc3)NC(=O)[C@H](C)NC(=O)[C@H](C)NC(=O)[C@H](CN(CC(=O)O)CC(F)(F)F)NC(=O)[C@H](CC(=O)O)NC1=O)NC(=O)[C@H](CC(C)(C)C)NC(=O)[C@H](CC(=O)O)NC2=O (stereo partly drawn) [I-1861]: 7.85
- CC(=O)N1CCC[C@]12CC=CCCCC1(CCCC=CCCCOC(=O)N3CC[C@@](C(=O)N[C@@H](Cc4ccccc4)C(=O)N[C@@H](Cc4csc5ccccc45)C(=O)N[C@@H](CCO)C(N)=O)(C3)NC(=O)[C@H](CC(N)=O)NC(=O)[C@H](Cc3ccccc3C(N)=O)NC(=O)[C@H](C)NC(=O)[C@H](CCCCNC(C)C)NC(=O)[C@H](CCC(N)=O)NC(=O)[C@H](CC(=O)O)NC1=O)NC(=O)[C@H](CC1CCCCC1)NC(=O)[C@H](CC(N)=O)NC2=O (stereo partly drawn): 5.51

Req: Please give the measured pIC50 for this molecule: CC(=O)N1CCC[C@]12CCCCCCC1(CCCCCCCCOC(=O)N3CC[C@@](C(=O)N[C@@H](Cc4ccsc4)C(=O)N[C@@H](Cc4csc5ccccc45)C(=O)N[C@@H](CCC(N)=O)C(N)=O)(C3)NC(=O)[C@H](CC(N)=O)NC(=O)[C@H](Cc3ccccc3)NC(=O)[C@H](C)NC(=O)[C@H](C)NC(=O)[C@H](CC(=O)O)NC(=O)[C@H](CC(=O)O)NC1=O)NC(=O)[C@H](CC(C)(C)C)NC(=O)[C@H](CC(=O)O)NC2=O (stereo partly drawn)
Resp: 7.27

Req: Please give the measured pIC50 for this molecule: CC(=O)N1CCC[C@]12CC=CCCCC1(CCCC=CCCCCCC[C@@](C)(C(=O)N[C@@H](Cc3ccccc3Cl)C(=O)N[C@@H](Cc3csc4ccccc34)C(=O)N[C@H](CO)[C@@H](C)O)NC(=O)[C@H](CCO)NC(=O)[C@H](Cc3ccccc3)NC(=O)[C@H](C)NC(=O)[C@H](C)NC(=O)[C@H](CC(=O)O)NC(=O)[C@H](CC(=O)O)NC1=O)NC(=O)[C@H](CC(C)(C)C)NC(=O)[C@H](CC(=O)O)NC2=O (stereo partly drawn)
Resp: 7.47

Req: Please give the measured pIC50 for this molecule: CC(=O)N1CCC[C@]12CC=CCCCC1(CCCC=CCCCOC(=O)N3CC[C@@](C(=O)N[C@@H](Cc4ccccc4C(F)(F)F)C(=O)N[C@@H](Cc4csc5ccccc45)C(=O)N[C@@H](CO)C(N)=O)(C3)NC(=O)[C@H](CC(C)C)NC(=O)[C@H](Cc3ccccc3)NC(=O)[C@H](C)NC(=O)[C@H](C)NC(=O)[C@H](Cn3cc(CC4(C(=O)O)CCCCC4)nn3)NC(=O)[C@H](CC(=O)O)NC1=O)NC(=O)[C@H](CC(C)(C)C)NC(=O)[C@H](CC(=O)O)NC2=O (stereo partly drawn)
Resp: 7.42

Req: Please give the measured pIC50 for this molecule: CCN(CC[C@@H]1NC(=O)[C@H](CC(=O)O)NC(=O)C2(CCCC=CCCCOC(=O)N3CC[C@@](C(=O)N[C@@H](Cc4ccsc4)C(=O)N[C@@H](Cc4csc5ccccc45)C(=O)N[C@@H](CCC(N)=O)C(N)=O)(C3)NC(=O)[C@H](CC(C)C)NC(=O)[C@H](Cc3ccccc3)NC(=O)[C@H](C)NC(=O)[C@H](C)NC1=O)CCCC=CC[C@]1(CCCN1C(C)=O)C(=O)N[C@@H](CC(=O)O)C(=O)N[C@@H](CC(C)(C)C)C(=O)N2)CC(=O)O (stereo partly drawn)
Resp: 7.47

Req: Please give the measured pIC50 for this molecule: CC(=O)NCCCC[C@@H]1NC(=O)[C@H](CCC(N)=O)NC(=O)[C@H](CC(=O)O)NC(=O)C2(CCCC=CCCCOC(=O)N3CC[C@@](C(=O)N[C@@H](Cc4ccccc4)C(=O)N[C@@H](Cc4csc5ccccc45)C(=O)N[C@@H](CC(=O)N4CCOCC4)C(N)=O)(C3)NC(=O)[C@H](CC(C)C)NC(=O)[C@H](Cc3ccccc3)NC(=O)[C@H](C)NC1=O)CCCC=CC[C@]1(CCCN1C(C)=O)C(=O)N[C@@H](CC(N)=O)C(=O)N[C@@H](CC1CCCCC1)C(=O)N2 (stereo partly drawn)
Resp: 6.66

Req: Please give the measured pIC50 for this molecule: CC(=O)N1CCC[C@]12CC=CCCCC1(CCCC=CCCCOC(=O)N3CC[C@@](C(=O)N[C@@H](Cc4ccsc4)C(=O)N[C@@H](Cc4csc5ccccc45)C(=O)N[C@@H](Cc4c[nH]cn4)C(N)=O)(C3)NC(=O)[C@H](CCC(N)=O)NC(=O)[C@H](Cc3ccccc3)NC(=O)[C@H](C)NC(=O)[C@H](C)NC(=O)[C@H](CC(=O)O)NC(=O)[C@H](CC(=O)O)NC1=O)NC(=O)[C@H](CC(C)(C)C)NC(=O)[C@H](CC(=O)O)NC2=O (stereo partly drawn) [I-1459]
Resp: 8.30
